System: MOLT-4
assay: NCI tumour cell line growth inhibition, 48 h
Calls of active or inactive are those of the source. No stated cut-off is given here; in the data, active = GI50 up to about 1.1 µM and inactive = higher.
measuredParameter: GI50

compound	measuredParameter	result
COc1cc(/C=C\C(=O)O)ccc1OCc1ccccc1	GI50	> 100 µM (inactive)
O=C1CCC2(c3ccc(Cl)cc3)Nc3ncncc3N12 (stereo not given)	GI50	> 10 µM (inactive)
COc1cc2c(cc1OC)-c1c3c(cc4c1[C@@H](C2)N(C)CC4)OCO3	GI50	3.85 µM (inactive)
COc1cc(CC2CC(c3ccc4c(c3)OCO4)OC2=O)cc(OC)c1OC (stereo not given)	GI50	83 µM (inactive)

Record CC12CCC([C@H](C(O)C3CCCCC3)C1=O)C2(C)C (stereo not given in full) . Reported GI50: 44.3 µM (inactive)

====

Tested on: U-251
assay: NCI tumour cell line growth inhibition, 48 h
Active and inactive are the calls of the source. Cut-off read from the data, not from the text of the source: active = GI50 up to about 1.1 µM and inactive = higher.
// classify into 1.0 = active, 0.0 = inactive

molecule	testTarget	assignedClass
C/C(=C\Cc1ccc(F)cc1)CCCCCC/C(C)=C/Cc1ccc(F)cc1	U-251	0.0
COc1cc(/C=C\C(=O)O)ccc1OCc1ccccc1	U-251	0.0
COC(C(O)c1ccc2c(c1)OCO2)P(=O)(c1ccccc1)c1ccccc1 (stereo not given)	U-251	0.0
CSCC[C@H]1C(=O)N=C(N)N1C(=O)OCc1ccccc1	U-251	0.0
Cc1cc(C)c(S(=O)(=O)N(CCCCCCN)OCCCN)c(C)c1	U-251	0.0
CCOC(=O)C1CCn2c(nc3c(=O)n(C)c(=O)n(C)c32)S1 (stereo not given)	U-251	0.0

Called result for CC1NOC(=O)C1/N=N/c1ccccc1Br (stereo not given)
0.0

Called result for `O=[N+]([O-])c1ccc(Cl)cc1N/N=C/c1cccc2cccnc12`
0.0

Called result for `COc1ccc2c(c1)[n+]([O-])c(-c1cccc(Cl)c1)c(N)[n+]2[O-]`
0.0

Called result for `COc1ccc(-c2cc(O)c3cc4c(cc3n2)OCO4)c(OC)c1`
0.0

Called result for CC(=O)C1C(=O)C(=O)N(c2ccc(Cl)cc2C)C1=O (stereo not given)
0.0

====

Tested on: CAKI-1
assay: NCI tumour cell line growth inhibition, 48 h
The source made the active and inactive calls. Rule as the data show it: active = GI50 up to about 1.1 µM and inactive = higher.
Some molecules, each annotated with its measured GI50.

molecule	GI50
CC(=O)OC1/C(=C/c2ccc([N+](=O)[O-])cc2)C[C@H]2[C@@H]3CC=C4C[C@@H](OC(C)=O)CC[C@]4(C)[C@H]3CC[C@]12C (some centres undefined)	> 48.9 µM (inactive)
CCCCCCCCCCCCN1[C@H]2CCC[C@H]2C(O)[C@@H]2CCC[C@@H]21 (some centres undefined)	> 100 µM (inactive)
COc1ccc2c(c1)CCC(CN1CCN(CCOC(c3ccc(F)cc3)c3ccc(F)cc3)CC1)C2O (centres undefined)	15.8 µM (inactive)

Record `COC(=O)C1(OC(=O)Sc2ccccc2)CCN(C)CC1` . Reported GI50: 4.95 µM (inactive)

====

Tested on: UACC-62
assay: NCI tumour cell line growth inhibition, 48 h
Active and inactive are the calls of the source. Cut-off read from the data, not from the text of the source: active = GI50 up to about 1.1 µM and inactive = higher.
Some compounds, each annotated with its measured GI50.

Some compounds with recorded GI50:
compound	GI50
Nc1nc(Cl)cc(NCC2(CO)CC(c3ccccc3)C2)n1 (stereo not given)	32.4 µM (inactive)
O=c1c(Sc2ncccn2)c(Sc2ncccn2)cnn1CCl	5.75 µM (inactive)
O=C1N/C(=N/N=C\C(O)C(O)C(O)C(O)CO)N/C1=C/c1ccccc1 (stereo not given)	> 100 µM (inactive)
O=C(CC1=NCCN1)c1ccccc1	> 750 µM (inactive)
CS(=O)(=O)N/N=C/CN1C(=O)c2ccccc2C1=O	> 100 µM (inactive)

Here's the next entry for you.
Record CC(=O)OC1/C(=C/c2ccc([N+](=O)[O-])cc2)C[C@H]2[C@@H]3CC=C4C[C@@H](OC(C)=O)CC[C@]4(C)[C@H]3CC[C@]12C (stereo not given in full) . Reported GI50: > 100 µM (inactive)

====

Some compounds, each annotated with its measured GI50.
System: UACC-62
assay: NCI tumour cell line growth inhibition, 48 h
Calls of active or inactive are those of the source. Cut-off read from the data, not from the text of the source: active = GI50 up to about 1.1 µM and inactive = higher.

Some compounds with recorded GI50:
compound	GI50
O=C1NC2CCCCCC2C12CCCCC2 (centres undefined)	> 100 µM (inactive)
COc1ccc(C(=O)/C=C/S/C(=N/C#N)SC)cc1	20 µM (inactive)
CN(C)CCCOC(=O)C(c1ccccc1)C1(O)CCSCC1 (centres undefined)	> 100 µM (inactive)
CN(N)c1cc(=O)[nH]c(=O)[nH]1	> 100 µM (inactive)
CC1=C(CC2C(=O)N(c3ccccc3)S(=O)(=O)NC2C)C(=O)N(c2ccccc2)S(=O)(=O)N1C (centres undefined)	> 100 µM (inactive)

Record C/C(=N/NC(=O)c1ccccc1S(N)(=O)=O)C(CN1CCCCC1)C(C1=C(O)C2C=CC=CC2OC1=O)c1ccccc1 (centres undefined) . Reported GI50: 82.6 µM (inactive)

Record COC(CC1(/C=C/O[Si](C(C)C)(C(C)C)C(C)C)C(=O)N(COCC[Si](C)(C)C)c2ccccc21)OC (centres undefined) . Reported GI50: 18.8 µM (inactive)

Record `CC12CCC(C)(c3cc(O)c(O)cc31)c1cc(O)c(O)cc12` . Reported GI50: 17.3 µM (inactive)

====

Some molecules, each annotated with its measured GI50.
Test system: T47D
assay: NCI tumour cell line growth inhibition, 48 h
The source made the active and inactive calls. Rule as the data show it: active = GI50 up to about 1.1 µM and inactive = higher.

Some molecules with recorded GI50:
molecule	testTarget	result
CCN(CC)CCNC(=O)c1cc2cc(NC(=O)c3cc4cc(NC(=O)c5cc6cc(N)ccc6[nH]5)ccc4[nH]3)ccc2[nH]1	T47D	> 100 µM (inactive)
CC1(C)CCC2=C(O1)/C(=N\Nc1ccccc1)c1ccccc1C2=O	T47D	18.8 µM (inactive)
COc1cc(/C=C2\C(=O)N(c3ccc(Cl)cc3)C(c3ccccc3)S2(=O)=O)cc(OC)c1OC (stereo unspecified)	T47D	2.77 µM (inactive)
CCOC(=O)c1oc2cc3c(c4c2c1-c1ccccc1N4C)C=CC(C)(C)O3	T47D	16.9 µM (inactive)
Nc1nc(Cl)cc(NCC2(CO)CC(c3ccccc3)C2)n1 (stereo unspecified)	T47D	11.4 µM (inactive)
Cc1ncc2c(n1)CCC1=C2OS(=O)(=O)CC1N(C)C (stereo unspecified)	T47D	63.1 µM (inactive)
N#CC1C(=O)NC2=C(CCOc3c2ccc2ccccc32)C1c1ccc(F)cc1 (stereo unspecified)	T47D	27.4 µM (inactive)
C[C@]12CCC(=O)C=C1CC[C@@H]1[C@@H]2[C@@H](O)C[C@@]2(C)[C@H]1CC[C@]2(O)C(=O)COC(=O)C1CCCC1	T47D	> 100 µM (inactive)

Record COc1cc(I)c2c3c1OC1C34CCN(C)C(C2)C4=CC(I)C1(OC)OC (stereo unspecified) . Reported GI50: 14.6 µM (inactive)

Record `CCOC(=O)C(=[N+]=[N-])C(=O)C[N+]12CCN(CC1)CC2` . Reported GI50: > 100 µM (inactive)

Record Fc1cccc(C2ON=C(c3ccccc3)N2C23CC4CC(CC(C4)C2)C3)c1 (stereo unspecified) . Reported GI50: > 10 µM (inactive)

Record O=C(O)c1cc2c(cc1CC(Cc1ccc3c(c1)CCC3)C(=O)O)CCC2 (stereo unspecified) . Reported GI50: > 100 µM (inactive)

Record COC1=CC(=O)O/C1=C(\OC)C1OC1c1ccccc1 (stereo unspecified) . Reported GI50: 76 µM (inactive)

Record `COc1ccc2c(c1)C(N)=C(c1ccccc1OC)C2=O` . Reported GI50: > 100 µM (inactive)

Record `COC(=O)C(=CNC(N)=O)C(=O)OC` . Reported GI50: > 100 µM (inactive)

Record `O=C(NNC(=O)c1ccccc1O)c1ccc(O)cc1` . Reported GI50: > 100 µM (inactive)

Record `Nc1ccc(S(=O)(=O)Nc2nccs2)cc1` . Reported GI50: > 100 µM (inactive)

Record COC(CC1(/C=C/O[Si](C(C)C)(C(C)C)C(C)C)C(=O)N(COCC[Si](C)(C)C)c2ccccc21)OC (stereo unspecified) . Reported GI50: > 100 µM (inactive)

====

System: OVCAR-4
assay: NCI tumour cell line growth inhibition, 48 h
Activity calls are given as the source filed them. Rule as the data show it: active = GI50 up to about 1.1 µM and inactive = higher. Residues, ends and D or L forms follow the SMILES beside them. *: point of attachment. Boc = CC(C)(C)OC(=O)*
Some compounds, each annotated with its measured GI50.

compound	GI50
C=C1C(=O)O[C@H]2[C@H]3O[C@@H](C[C@@H]12)[C@](C)(O)CCCC(C)=CCC[C@H]3C	16.1 µM (inactive)
CC(NC(=O)C(NC(=O)OC(C)(C)C)C(C)C)C(=O)N1CCCC1C(=O)NCC(=O)NC(C(=O)NCC(=O)O)C(C)C (centres undefined) (Boc-VAPGVG-OH; configuration not given here)	> 100 µM (inactive)
O=c1ccn(C2OC(COC3CCCCO3)C(OC3CCCCO3)C2OC2CCCCO2)c(=O)n1-c1ccccc1 (centres undefined)	> 100 µM (inactive)
COc1ccc(-c2cc(O)c3cc4c(cc3n2)OCO4)c(OC)c1	71.1 µM (inactive)

Record COC(C(O)c1ccc2c(c1)OCO2)P(=O)(c1ccccc1)c1ccccc1 (centres undefined) . Reported GI50: 11.1 µM (inactive)

Record `CN(C)CCNC(=O)c1cccc2c1nc(-c1cccnc1)c1ccccc12` . Reported GI50: 4.91 µM (inactive)

Record COc1ccc(/C=C2\CC3C4CC=C5C[C@@H](O)CC[C@]5(C)C4CC[C@]3(C)C2=O)cc1OC (some centres undefined) . Reported GI50: 21.8 µM (inactive)

Record CC1=C(CC2C(=O)N(c3ccccc3)S(=O)(=O)NC2C)C(=O)N(c2ccccc2)S(=O)(=O)N1C (centres undefined) . Reported GI50: > 100 µM (inactive)

Record COc1c2c(cc3c1C(O)N1CC[C@]34[C@H]3O[C@H]3[C@H](OC)C[C@@H]14)OCO2 (some centres undefined) . Reported GI50: > 100 µM (inactive)

Record `Cc1ccc(C2=NOC(=O)[C@@H]3CCCC[C@@H]23)cc1` . Reported GI50: > 100 µM (inactive)

Record O=C1NC2(CN3CCC2CC3)C(=O)N1CN(Cc1ccccc1)c1ccccc1 (centres undefined) . Reported GI50: > 100 µM (inactive)

Record `CN/N=C(/CC(=O)c1sc(-n2nc(-c3ccccc3)cc2-c2ccccc2)nc1C)C(=O)Nc1ccc(Cl)c(Cl)c1` . Reported GI50: 52.6 µM (inactive)

Record COC(CC1(/C=C/O[Si](C(C)C)(C(C)C)C(C)C)C(=O)N(COCC[Si](C)(C)C)c2ccccc21)OC (centres undefined) . Reported GI50: 20.8 µM (inactive)

Record COC(=O)[C@@]12C(=O)C=CC(=O)[C@@H]1C1C(=CC2COC(C)=O)O[C@@H]2OC3(CCCCC3)O[C@H]12 (some centres undefined) . Reported GI50: 5.24 µM (inactive)

Record `O=C1c2cccc3cccc(c23)C(=O)N1O` . Reported GI50: 57.8 µM (inactive)

Record `O=[N+]([O-])c1ccc(NS(=O)(=O)C(F)(F)F)cc1` . Reported GI50: > 100 µM (inactive)

Record O=C1CCC2(c3ccc(Cl)cc3)Nc3ncncc3N12 (centres undefined) . Reported GI50: > 10 µM (inactive)

Record `COc1cc(OC)nc(-n2c(N)c(C(=O)O)c3ccc([N+](=O)[O-])cc3c2=O)n1` . Reported GI50: > 100 µM (inactive)

Record `CNC(=S)NNc1ncnc2c1ncn2-c1ccc(C)cc1` . Reported GI50: > 100 µM (inactive)
